Items are presented alongside their recorded pIC50.
- system: B-Raf(V599E) kinase (Homo sapiens, UniProt P15056, V600E)
- Sequence (P15056 with tags, fused parts or gaps V600E): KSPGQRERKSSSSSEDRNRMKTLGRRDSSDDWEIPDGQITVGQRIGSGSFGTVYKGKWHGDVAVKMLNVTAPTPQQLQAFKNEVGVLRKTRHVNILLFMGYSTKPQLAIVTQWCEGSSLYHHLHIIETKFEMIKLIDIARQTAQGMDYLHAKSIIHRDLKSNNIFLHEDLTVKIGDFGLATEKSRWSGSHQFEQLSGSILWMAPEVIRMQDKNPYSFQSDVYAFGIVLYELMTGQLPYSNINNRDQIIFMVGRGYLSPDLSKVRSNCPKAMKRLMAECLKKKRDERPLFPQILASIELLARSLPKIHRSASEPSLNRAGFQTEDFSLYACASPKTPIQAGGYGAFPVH
- test description: B-Raf(V599E) kinase assay B1 (construct 1, MEK1 substrate, coupled spectrophotometric)
- Assay type: biochemical
- condition parameters: Method B1; read-out: B-Raf Data
On this scale, pIC50 is minus log10 of a concentration expressed in M (mol/L).

query smiles | pIC50
CC(C)(C)c1cc(NC(=O)Nc2cccc(-c3cnccn3)c2)n(-c2cccc(CC(N)=O)c2)n1 | 6.55

Given the entry O=C(O)Cc1cccc(-n2nc(-c3cccs3)cc2NC(=O)Nc2cccc(Cl)c2Cl)c1 , what pIC50 was observed with B-Raf(V599E) kinase (Homo sapiens, UniProt P15056, V600E)?
6.80

API: value(readout=pIC50, system=B-Raf(V599E) kinase (Homo sapiens, UniProt P15056, V600E)) for record O=C(O)Cc1cccc(-n2nc(C3CCCC3)cc2NC(=O)Nc2cccc(Cl)c2Cl)c1
8.21

GET /values?readout=pIC50&system=B-Raf(V599E) kinase (Homo sapiens, UniProt P15056, V600E)&item= CC(C)(C)c1cc(NC(=O)Nc2cccc(F)c2F)n(-c2cccc(CC(N)=O)c2)n1
8.06

Provide the documented pIC50 with B-Raf(V599E) kinase (Homo sapiens, UniProt P15056, V600E) as the system for CC(C)(C)c1cc(NC(=O)Nc2cc(F)c(F)cc2F)n(-c2cccc(CC(N)=O)c2)n1
8.17

Lookup: pIC50 / B-Raf(V599E) kinase (Homo sapiens, UniProt P15056, V600E) / CC(C)(C)c1cc(NC(=O)Nc2ccc(F)c(F)c2F)n(-c2cccc(CC(N)=O)c2)n1
8.14

I'm curious: which pIC50 was measured for NC(=O)Cc1cccc(-n2nc(-c3cccs3)cc2NC(=O)Nc2cccc(Cl)c2Cl)c1 tested on B-Raf(V599E) kinase (Homo sapiens, UniProt P15056, V600E)?
6.08

---

Form field: pIC50 (one value per entry).
- system: phosphorylated p-38-alpha kinase (Homo sapiens, UniProt Q16539)
- Sequence (Q16539 1-360 isoform Q16539-2): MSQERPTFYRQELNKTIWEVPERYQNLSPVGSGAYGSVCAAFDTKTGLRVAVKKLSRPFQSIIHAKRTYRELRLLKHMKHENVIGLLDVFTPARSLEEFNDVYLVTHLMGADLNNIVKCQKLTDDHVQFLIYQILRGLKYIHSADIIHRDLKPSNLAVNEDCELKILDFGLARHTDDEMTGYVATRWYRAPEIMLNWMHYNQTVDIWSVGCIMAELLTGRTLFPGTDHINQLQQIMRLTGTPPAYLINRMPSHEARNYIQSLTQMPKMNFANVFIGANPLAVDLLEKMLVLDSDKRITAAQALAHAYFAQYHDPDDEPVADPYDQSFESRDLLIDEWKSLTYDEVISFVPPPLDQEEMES
- test description: P-38 alpha kinase assay P1 (coupled spectrophotometric, 2 h pre-incubation)
- Type: biochemical
- condition parameters: method P1 (2 h pre-incubation); read-out: P-38 Data
Scale: negative log10 of molar concentration, which is what pIC50 denotes.

These recorded examples may help you get a feel for the data.
molecule | pIC50
COC[C@H]1CCCN1C(=O)Cc1ccc(-n2nc(C(C)(C)C)cc2NC(=O)Nc2cccc(Cl)c2Cl)cc1 [Example 484] | 7.89
CC(C)(C)c1cc(NC(=O)Nc2cccc(Cl)c2Cl)n(-c2ccc3ncccc3c2)n1 [Example 52] | 7.64
O=C(Cc1cccc(-n2nc(-c3ccccc3F)cc2NC(=O)Nc2cccc3ccccc23)c1)NCCO [Example 426] | 7.42

As a next step, examine the molecule that follows.
Form field - read-out: pIC50; system: phosphorylated p-38-alpha kinase (Homo sapiens, UniProt Q16539); submitted item: NC(=O)Cc1ccc(-n2nc(-c3cccs3)cc2NC(=O)N[C@H]2CCc3ccccc32)cc1 [Example 489]
7.46

---

- system: B-Raf(V599E) kinase (Homo sapiens, UniProt P15056, V600E)
- test description: B-Raf(V599E) kinase assay B1 (construct 1, MEK1 substrate, coupled spectrophotometric)
- Type: biochemical
Listed below: IC50 values for each entry.
Give just the numeric value; nM need not be written.

Example entries and their recorded answers appear below.
query smiles | system | IC50, nM
CC(C)(C)c1cc(NC(=O)Nc2cccc(Cl)c2Cl)n(-c2cc(CCN)c3ccccc3c2)n1 | B-Raf(V599E) kinase (Homo sapiens, UniProt P15056, V600E) | 2.6
CC(C)(C)c1cc(NC(=O)Nc2ccc(F)c(F)c2F)n(-c2ccc3[nH]c(=O)ccc3c2)n1 | B-Raf(V599E) kinase (Homo sapiens, UniProt P15056, V600E) | 3.4
CC(C)(C)c1cc(NC(=O)Nc2cccc(Cl)c2Cl)n(-c2ccc3c(c2)CCN3S(C)(=O)=O)n1 | B-Raf(V599E) kinase (Homo sapiens, UniProt P15056, V600E) | 1.5

Any idea what its IC50 is? The molecule is COc1ccc(-n2nc(C(C)(C)C)cc2NC(=O)Nc2cccc(Cl)c2)cc1
50

Values from patent US8163756B2
